Listing: IC50 of selected compounds
Target: EGFR L858R/T790M (Homo sapiens, UniProt P00533, L858R/T790M)
Construct: purchased Carna Bio
Sequence (P00533 25-1210 T790M/L858R): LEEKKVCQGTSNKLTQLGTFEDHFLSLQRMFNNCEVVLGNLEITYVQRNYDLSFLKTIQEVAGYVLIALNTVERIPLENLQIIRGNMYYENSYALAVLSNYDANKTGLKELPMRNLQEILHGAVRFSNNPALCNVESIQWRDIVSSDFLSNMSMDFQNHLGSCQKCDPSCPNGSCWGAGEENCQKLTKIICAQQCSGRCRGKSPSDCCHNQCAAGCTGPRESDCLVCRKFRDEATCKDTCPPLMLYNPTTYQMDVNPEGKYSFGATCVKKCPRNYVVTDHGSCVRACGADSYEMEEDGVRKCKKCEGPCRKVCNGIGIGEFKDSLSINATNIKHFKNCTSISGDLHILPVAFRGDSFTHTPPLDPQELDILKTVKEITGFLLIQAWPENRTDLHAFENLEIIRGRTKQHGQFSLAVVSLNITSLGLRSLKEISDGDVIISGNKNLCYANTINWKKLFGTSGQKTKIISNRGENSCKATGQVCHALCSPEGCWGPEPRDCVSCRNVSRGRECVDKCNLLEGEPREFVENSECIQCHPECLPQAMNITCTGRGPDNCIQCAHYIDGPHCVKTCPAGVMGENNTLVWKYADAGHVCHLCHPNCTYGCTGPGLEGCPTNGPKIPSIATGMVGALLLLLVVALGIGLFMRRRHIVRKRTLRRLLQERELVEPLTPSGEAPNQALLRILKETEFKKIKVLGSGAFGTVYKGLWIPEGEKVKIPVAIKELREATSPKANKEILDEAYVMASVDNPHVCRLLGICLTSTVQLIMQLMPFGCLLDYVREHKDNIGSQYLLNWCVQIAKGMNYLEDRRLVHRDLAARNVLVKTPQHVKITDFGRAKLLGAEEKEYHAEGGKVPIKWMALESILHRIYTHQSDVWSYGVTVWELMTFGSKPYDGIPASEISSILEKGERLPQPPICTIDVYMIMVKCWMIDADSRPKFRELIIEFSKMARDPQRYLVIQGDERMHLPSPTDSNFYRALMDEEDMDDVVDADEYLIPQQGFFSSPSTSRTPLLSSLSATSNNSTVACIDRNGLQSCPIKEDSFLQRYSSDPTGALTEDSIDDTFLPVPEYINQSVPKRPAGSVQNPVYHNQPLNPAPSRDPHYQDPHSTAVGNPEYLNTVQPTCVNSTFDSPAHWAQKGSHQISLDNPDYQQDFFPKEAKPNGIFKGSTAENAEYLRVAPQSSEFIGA
Assay: Inhibition of EGFR L858R/T790M biochemical enzymatic activity (HTRF)
Details: EGFR L858R/T790M, 1 mM ATP, 1 h at room temperature, read-out: IC50 @L858R-T790M
# number only, unit µM dropped from output

INSERT INTO results (compound, endpoint_name, u, val) VALUES
  ('Cc1cc2cc(n1)-c1cnn(C)c1OCCN1CC3CCC(C3)(C1)n1c(nc3ccc(N4CCC(N5CCOCC5)C4)cc31)NC2=O (single isomer, unassigned) [Example B44B1]', 'IC50', 'µM', 0.019),
  ('Cc1cc2cc(n1)-c1cnn(C)c1OCCN1CC3CCC(C3)(C1)n1c(nc3ccc(N(C)CCN(C)C)cc31)NC2=O (single isomer, unassigned) [Example B47B]', 'IC50', 'µM', 0.0035),
  ('Cc1cc2cc(n1)-c1cnn(C)c1OCCN1CC3CCC(CC3)(C1)n1c(nc3ccc(N4CC[C@H](N(C)C)C4)cc31)NC2=O', 'IC50', 'µM', 0.017);

## Input I would be grateful if you could share the reported IC50 for Cc1cc2cc(n1)-c1cnn(C)c1OCCN1CC3CCC(C3)(C1)n1c(nc3ccc(N4CCC5(CN(C)C5)C4)cc31)NC2=O (single isomer, unassigned) [Example B50B] .
## Output 0.003
